STUDY_SYSTEM: NADPH oxidase 4 (Homo sapiens) (UniProt Q9NPH5)
Sequence (Q9NPH5 whole entry, looked up): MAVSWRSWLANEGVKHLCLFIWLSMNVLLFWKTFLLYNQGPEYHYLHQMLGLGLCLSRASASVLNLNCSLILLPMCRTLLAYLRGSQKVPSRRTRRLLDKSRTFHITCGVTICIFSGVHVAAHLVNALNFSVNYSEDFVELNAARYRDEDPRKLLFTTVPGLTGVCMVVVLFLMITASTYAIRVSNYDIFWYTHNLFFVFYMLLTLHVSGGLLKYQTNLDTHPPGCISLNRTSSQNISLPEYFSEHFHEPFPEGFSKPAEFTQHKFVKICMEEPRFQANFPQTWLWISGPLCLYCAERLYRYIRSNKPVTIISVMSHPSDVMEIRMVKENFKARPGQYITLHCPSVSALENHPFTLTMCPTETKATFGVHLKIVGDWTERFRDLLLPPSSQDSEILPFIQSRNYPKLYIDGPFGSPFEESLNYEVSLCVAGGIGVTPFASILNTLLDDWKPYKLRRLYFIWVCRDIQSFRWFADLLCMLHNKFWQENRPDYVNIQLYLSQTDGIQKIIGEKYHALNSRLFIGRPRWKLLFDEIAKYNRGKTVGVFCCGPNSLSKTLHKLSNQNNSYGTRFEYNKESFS
PROTOCOL_NOTES: compounds shifting NOX4 Amplex Red fluorescence – cell-based, HEK293-NOX4, tetracycline-induced, NOX inhibitor project, primary screen (AID 1160)
EXPERIMENTAL_CONDITIONS: HEK293-NOX4, Amplex Red H2O2 fluorescence, 45 min; higher = more signal, called active from +8 up or from −8 down
Each entry gets no if its z-score stays under -0.4, and yes if its z-score is -0.4 or above.

Solved entries (count: 5):
COMPOUND	GROUP_LABEL
Cc1ccc(S[C@]2(C(=O)NCCCN(C)C)CC(=O)N(C3Cc4ccccc4C3)[C@@H]2c2ccc(CO)cc2I)cc1	no
COc1ccc([Si](C)(C)[C@H]2[C@H](CC(=O)N3Cc4ccccc4C[C@H]3CO)O[C@@]3(C(=O)N(c4ccccc4)c4ccccc43)[C@@H]2C)cc1	no
[N-]=[N+]=Nc1ccccc1C[C@]1(C(=O)N2CCOCC2)N=C(c2ccc(OCCCO)cc2)O[C@H]1c1ccccc1N=[N+]=[N-]	yes
CC(C)=CCCC(C)=CC(O)C1C=CC2C(=O)NC(=O)C2N1Nc1ccccn1 (stereo not drawn)	no
CN1C(=O)C2C(C1=O)C1C=C(CCCO)C2C(C2CC2)N1Cc1cccc(OC(F)(F)F)c1 (stereo not drawn)	yes

I'd appreciate it if you could say whether "C[N+](C)(C)CCCC[C@@H]1NC(=O)[C@@H]2C[C@H](C(=O)NCc3ccc(F)cc3)[C@H](c3ccc(O)cc3)N2C1=O" has z-score at least equal to -0.4.
yes

I'd appreciate it if you could say whether O=C1NC(=O)C2C1C=CC(C(O)c1ccc([N+](=O)[O-])cc1)N2Nc1ccccn1 (stereo not drawn) has z-score at least equal to -0.4.
no

* * *

PROTOCOL_NOTES: compound effects on lung adenocarcinoma cell viability – A549, calcein-AM fluorescence, 48 h, basal, profiling panel (AID 1162); note: test concentration not given here
EXPERIMENTAL_CONDITIONS: higher = more signal
Each entry gets not satisfied if its z-score stays under -0.2, and satisfied if its z-score is -0.2 or above.

COMPOUND	GROUP_LABEL
COc1ccc([Si](C)(C)[C@H]2[C@H](CC(=O)N3Cc4ccccc4C[C@H]3CO)O[C@@]3(C(=O)N(c4ccccc4)c4ccccc43)[C@@H]2C)cc1	not satisfied

I'd appreciate it if you could say whether "O=C1C[C@]2(c3ccc([N+](=O)[O-])cc3)C(=O)N(C3CC3)c3cc(CO)ccc3[C@H]2N1C1CCCCC1" has z-score at least equal to -0.2.
satisfied

I'd appreciate it if you could say whether "COC(=O)C[C@H]1O[C@@]2(C[C@@H]1[Si](C)(C)C)C(=O)N(C)c1ccccc12" has z-score at least equal to -0.2.
satisfied

I'd appreciate it if you could say whether CC(C)C[C@H]1NC(=O)C([C@@H](C)OCc2ccccc2)NC(=O)[C@@]23C(=O)N[C@@H](Cc4ccccc4)C2[C@H](C)[C@@]2(C)O[C@H]2C3/C=C/C/C=C\CNC1=O (stereo partly drawn) has z-score at least equal to -0.2.
not satisfied

I'd appreciate it if you could say whether "C=CCOC(=O)[C@@H]1[C@H]2C(=O)O[C@H](c3ccccc3)[C@H](c3ccccc3)N2[C@H](c2ccc(OCCOC(=O)[C@H]3C[C@H]4C(=O)N5CCC[C@H]5C(=O)N4[C@H]3c3cccc(OCCO)c3)cc2)[C@@]12C(=O)Nc1ccc(I)cc12" has z-score at least equal to -0.2.
not satisfied

I'd appreciate it if you could say whether "COCCOC(=O)N1C(=O)[C@@]2(c3cc(C#CCCO)ccc31)[C@H](c1ccc(OCCO)cc1)N1[C@H](c3ccccc3)[C@H](c3ccccc3)OC(=O)[C@H]1[C@@H]2C(=O)N1CCCCCCC1" has z-score at least equal to -0.2.
satisfied

I'd appreciate it if you could say whether "CCCC#C[Si](O[C@H](CC)c1cn(Cc2ccccc2)nn1)(C(C)C)C(C)C" has z-score at least equal to -0.2.
satisfied

I'd appreciate it if you could say whether "Cc1ccc(S[C@]2(C(=O)NCc3ccccc3)CC(=O)N(Cc3ccccc3C(F)(F)F)[C@@H]2c2ccc(CO)cc2)cc1" has z-score at least equal to -0.2.
satisfied

* * *

STUDY_SYSTEM: Calmodulin-1 (Homo sapiens) (UniProt P0DP23)
PROTOCOL_NOTES: small molecules binding calmodulin-1 with EGTA – biochemical, small-molecule microarray, Cy5-labelled CALM1, profiling panel (AID 1111);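 note: labelled calmodulin applied in Tris saline Tween buffer holding calcium plus EGTA and DTT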
EXPERIMENTAL_CONDITIONS: Cy5-CALM1 binding fluorescence, higher = more signal
REPORTED_ENDPOINT: composite z-score

                                smiles_code                              study_system  result
0  COCCOC(=O)N1C(=O)[C@@]2(c3ccccc31)[C@H](c1ccc(O)cc1)N1[C@H](c3ccccc3)[C@H](c3ccccc3)OC(=O)[C@H]1[C@@H]2C(=O)N1CCCCCCC1  Calmodulin-1 (Homo sapiens) (UniProt P0DP23)    2.52
1  O=C(N1CCOCC1)[C@@]1(Cc2ccccc2)COC(c2ccc(OCCCO)cc2)=N1  Calmodulin-1 (Homo sapiens) (UniProt P0DP23)    1.16

Switching to the query record.
Value lookup for composite z-score; key = "O=C1N(CCS(=O)(=O)c2ccccc2)c2ccccc2C[C@]12N=C(c1ccc(OCCCO)cc1)O[C@@H]2c1ccccc1"
2.28

* * *

PROTOCOL_NOTES: compound effects on hepatocellular carcinoma cell viability – HepG2, calcein-AM fluorescence, 48 h, basal, profiling panel (AID 1164); note: test concentration not given here
EXPERIMENTAL_CONDITIONS: higher = more signal
For each of the compounds below, state its z-score.
Answers are plain numbers.

Field: example entries. Status: answers known.
                                   compound  numeric_value
0  CC1CC/C=C\[C@H]2OC34C=CCN(Cc5ccccc5)C(=O)[C@H]3N(CCCCCCO)C(=O)[C@@H]4C2C(=O)O1 (some centres not stated)          0.881
1  COc1ccc(C(=O)Nc2ccc(CN3C(=O)[C@@]4(O[C@@H](CCn5cc(CCO)nn5)[C@H]([Si](C)(C)c5ccc(OC)cc5)[C@H]4C)c4ccccc43)cc2)cc1          -3.14
2  O=C1C2C=CC(C(O)C3CCCCC3)N(n3cnnc3)C2C(=O)N1Cc1ccccc1 (configuration not stated)         -0.611
3  C=C(COC)C(=O)CC[C@@H](OC(=O)c1ccccc1-c1ccccc1C(=O)O)c1ccc(OCCO)cc1         -0.354
4  COC(=O)[C@]1(Cc2ccccc2)N=C(c2ccc(OCCCO)cc2)O[C@@H]1c1ccccc1CN=[N+]=[N-]          -5.37
5  COC(=O)[C@@]1(Cc2ccc(OC)cc2)[C@H]2c3cc(C(=O)N(C)C)[nH]c3C[C@H]2CN1C(=O)c1ccccc1          0.683
6  CN1C(=O)C2C(C1=O)C1C=C(CCCO)C2C(C2CC2)N1Cc1cccc(OC(F)(F)F)c1 (configuration not stated)         -0.814
7  CCOC(=O)C1=CC[C@@H](c2ccc(OC)cc2)N(S(=O)(=O)c2ccc(C)cc2)[C@H]1CC          0.945
8                N#Cc1ccc(-c2cccc(=O)o2)cc1           0.37
9  CCOC(=O)C[C@H]1[C@H](OC(=O)c2cc3ccccc3oc2=O)[C@@H](NC(=O)CC(C)C)c2cc(OCCCO)ccc2N1C(=O)Cc1ccc(OC)cc1          0.535

List reported z-score for each of these compounds:
1. O=C(NC1CC1)[C@@H]1c2ccccc2C(=O)N(CC23CC4CC(CC(C4)C2)C3)[C@H]1c1ccc(CO)cc1
2. CCOC(=O)C1=C[C@@H](C(C)(C)C)N(S(=O)(=O)c2ccc(C)cc2)[C@H]1c1ccc(C#N)cc1

1: 0.232; 2: -1.12

* * *

PROTOCOL_NOTES: forskolin-driven CRE-LacZ activity in PC12 – cell-based, CRE-LacZ reporter, forskolin-stimulated, primary screen (AID 1146);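 note: PC12 cells with 6xCRE LacZ reporter stimulated by forskolin 10 µM; beta-galactosidase reporter signal reflecting CREB driven transcription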
EXPERIMENTAL_CONDITIONS: luminescence, 4.5 h, called active from +8 up or from −8 down
The source made the active and inactive calls.
Respond using exactly one of the listed classes: true (active), false (inactive)

Solved entries (count: 2):
COMPOUND	GROUP_LABEL
COc1ccc([Si](C)(C)[C@H]2[C@H](CC(=O)N3Cc4ccccc4C[C@H]3CO)O[C@@]3(C(=O)N(C)c4ccccc43)[C@@H]2C)cc1	false
CN(C)C(=O)[C@@]1(Cc2ccccc2CN=[N+]=[N-])COC(c2ccc(OCCCO)cc2)=N1	false

Which outcome was assigned to "C=C(COC)C(=O)CC[C@@H](OC(C)=O)c1ccccc1OCCO" in this test?
true

Which outcome was assigned to C=C(C)[C@@H]1CC=C(C(O)C2C=CC3C(=O)N(c4ccccc4)C(=O)C3N2Nc2ccc([N+](=O)[O-])cc2)CC1 (some centres undefined) in this test?
false

Which outcome was assigned to NC(=O)N1C(=O)C2C(C1=O)C1C=C(CCCO)C2C(c2ccc(CN3CCCC3)cc2)N1Cc1sc2ccccc2c1Cl (centres undefined) in this test?
false

Which outcome was assigned to C=CCC(OC(C)=O)[C@@H]1[C@@H](N(Cc2ccc(-c3cccc(C(F)(F)F)c3)o2)C(=O)c2ccc(-c3ccccc3)cc2)c2cc(OCCCO)ccc2N1C(=O)c1ccc2ccccc2c1 (some centres undefined) in this test?
false

Which outcome was assigned to "COC(=O)[C@@]1(Cc2ccc(F)cc2)[C@H]2c3cc(C(=O)N(C)C)n(C)c3C[C@H]2CN1C(=O)c1ccccc1" in this test?
false

Which outcome was assigned to Cc1ccccc1C(O)C1C=CC2C(=O)N(c3ccccc3)C(=O)C2N1Nc1ccccc1 (centres undefined) in this test?
false

Which outcome was assigned to "COC(=O)C(CC#Cc1ccc2c(c1)[C@]1(C(=O)N2)[C@H](c2ccc(OCCO)cc2)N2[C@H](c3ccccc3)[C@H](c3ccccc3)OC(=O)[C@H]2[C@@H]1C(=O)N1CCCCCCC1)C(=O)OC" in this test?
false
